Hi there, I'd appreciate the recorded solubility for every entry that follows.
Assay Procedure: Solubility of the compound
Format: physicochemical

Returns the measured solubility for the input compound. Input: Cn1cc(Cn2c(=O)c3cc(S(=O)(=O)NC4(C)CC4)ccc3n(CC3COC3)c2=O)cn1
> 100 µM

Returns the measured solubility for the input compound. Input: Cc1cc(Cn2c(=O)c3cc(S(=O)(=O)NC4(C)CC4)ccc3n(CC3COC3)c2=O)on1
> 100 µM

====

Assay Procedure: Clearance in human liver microsomes
Readout Type: microsomal CLint (µL/min/mg)
Expressed in µL/min/mg, but write only the number.

Returns the measured microsomal CLint for the input molecule. Input: Cc1cc(Cn2c(=O)n(Cc3cnn(C)c3)c(=O)c3cc(S(=O)(=O)NC4(C)CC4)ccc32)n(C)n1
34

Returns the measured microsomal CLint for the input molecule. Input: Cn1cc(Cn2c(=O)c3cc(S(=O)(=O)NC4(C)CC4)ccc3n(CC3CC3)c2=O)cn1
81

Returns the measured microsomal CLint for the input molecule. Input: Cn1cc(Cn2c(=O)c3cc(S(=O)(=O)NC4(C)CC4)ccc3n(CC3COC3)c2=O)cn1
9.2

Returns the measured microsomal CLint for the input molecule. Input: Cc1cc(Cn2c(=O)c3cc(S(=O)(=O)NC4(C)CC4)ccc3n(CC3CC3)c2=O)on1
80

Returns the measured microsomal CLint for the input molecule. Input: CCn1c(=O)n(Cc2cnn(C)c2)c(=O)c2cc(S(=O)(=O)NC3(C)CC3)ccc21
35

Returns the measured microsomal CLint for the input molecule. Input: Cc1cc(Cn2c(=O)n(CC#N)c(=O)c3cc(S(=O)(=O)NC4(C)CC4)ccc32)n(C)n1
20

Returns the measured microsomal CLint for the input molecule. Input: C#CCn1c(=O)n(CC#N)c(=O)c2cc(S(=O)(=O)NC3(C)CC3)ccc21
10

Returns the measured microsomal CLint for the input molecule. Input: C#CCn1c(=O)n(Cc2cc(C)no2)c(=O)c2cc(S(=O)(=O)NC3(C)CC3)ccc21
72

Returns the measured microsomal CLint for the input molecule. Input: Cc1cc(Cn2c(=O)c3cc(S(=O)(=O)NC4(C)CC4)ccc3n(Cc3cc(C)nn3C)c2=O)on1
37

Returns the measured microsomal CLint for the input molecule. Input: Cc1ncc(Cn2c(=O)c3cc(S(=O)(=O)NC4(C)CC4)ccc3n(CC3CC3)c2=O)s1
160

Returns the measured microsomal CLint for the input molecule. Input: Cc1nc(C)c(Cn2c(=O)n(Cc3cnn(C)c3)c(=O)c3cc(S(=O)(=O)NC4(C)CC4)ccc32)s1
97
